Overview of recorded Average % for various binders
- SYSTEM: T1, HLA-A*02:01 (human, biotinylated heavy chain)
- T1 construct: Conditional HLA class I complex as for m1
- TEST DETAILS: UV peptide exchange; HLA class I ELISA;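 note: conditional HLA class I complexes UV-irradiated with peptide, captured on streptavidin wells, intact complex read as HRP anti-B2M absorbance, higher means more binding, control irradiated without rescue peptide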

{"columns": ["BINDER", "Average % / %"],
 "data": [
  ["IAMDSAITL [Peptide 2, 9-mer IAMDSAITL derived from FUS1 (SEQ ID NO: 1001)]", 85.8],
  ["HREKQLIAM [Peptide 7, 9-mer HREKQLIAM derived from P22 (SEQ ID NO: 1003)]", 8.2],
  ["KQLIAMDSA [Peptide 9, 9-mer KQLIAMDSA derived from P22 (SEQ ID NO: 1003)]", 7.2],
  ["LYHREKQLI [Peptide 5, 9-mer LYHREKQLI derived from P22 (SEQ ID NO: 1003)]", 11.8],
  ["SLYHREKQL [Peptide 4, 9-mer SLYHREKQL derived from P22 (SEQ ID NO: 1003)]", 87],
  ["YHREKQLIA [Peptide 6, 9-mer YHREKQLIA derived from P22 (SEQ ID NO: 1003)]", 17.2],
  ["AMDSAITLW [Peptide 1, 9-mer AMDSAITLW derived from FUS1 (SEQ ID NO: 1001)]", 8.6],
  ["SLIAMDSAI [Peptide 3, 9-mer SLIAMDSAI derived from FUS1 (SEQ ID NO: 1001)]", 58.5],
  ["LIAMDSAIT [Peptide 10, 9-mer LIAMDSAIT derived from P22 (SEQ ID NO: 1003)]", 6.9]
]}
